src = BigSolDB 2.1

Measured solubility (mole fraction) by item
Conditions: in ethanol, 288 K
Answer with a bare number; do not write a unit.

1. O=S(=O)([N-]Cl)c1ccccc1.[Na+]
0.0224

Now turn to the next molecule.
# input Returns the measured solubility (mole fraction) for the input molecule. Input: Cc1ccc(S(=O)(=O)[N-]Cl)cc1.[Na+]
# output 0.0244

###

Readings of solubility (mole fraction) for the listed compounds
Settings: in water, 288 K
No unit in the answer, only the number.

1. O=S(=O)([N-]Cl)c1ccccc1.[Na+]
0.0102

Now take the following compound into account.
# input Tell me the measured solubility (mole fraction) of Cc1ccc(S(=O)(=O)[N-]Cl)cc1.[Na+] , please.
# output 0.00955
